- STUDY_SYSTEM: Ataxin-2 (Homo sapiens) (UniProt Q99700)
- Sequence (Q99700 whole entry): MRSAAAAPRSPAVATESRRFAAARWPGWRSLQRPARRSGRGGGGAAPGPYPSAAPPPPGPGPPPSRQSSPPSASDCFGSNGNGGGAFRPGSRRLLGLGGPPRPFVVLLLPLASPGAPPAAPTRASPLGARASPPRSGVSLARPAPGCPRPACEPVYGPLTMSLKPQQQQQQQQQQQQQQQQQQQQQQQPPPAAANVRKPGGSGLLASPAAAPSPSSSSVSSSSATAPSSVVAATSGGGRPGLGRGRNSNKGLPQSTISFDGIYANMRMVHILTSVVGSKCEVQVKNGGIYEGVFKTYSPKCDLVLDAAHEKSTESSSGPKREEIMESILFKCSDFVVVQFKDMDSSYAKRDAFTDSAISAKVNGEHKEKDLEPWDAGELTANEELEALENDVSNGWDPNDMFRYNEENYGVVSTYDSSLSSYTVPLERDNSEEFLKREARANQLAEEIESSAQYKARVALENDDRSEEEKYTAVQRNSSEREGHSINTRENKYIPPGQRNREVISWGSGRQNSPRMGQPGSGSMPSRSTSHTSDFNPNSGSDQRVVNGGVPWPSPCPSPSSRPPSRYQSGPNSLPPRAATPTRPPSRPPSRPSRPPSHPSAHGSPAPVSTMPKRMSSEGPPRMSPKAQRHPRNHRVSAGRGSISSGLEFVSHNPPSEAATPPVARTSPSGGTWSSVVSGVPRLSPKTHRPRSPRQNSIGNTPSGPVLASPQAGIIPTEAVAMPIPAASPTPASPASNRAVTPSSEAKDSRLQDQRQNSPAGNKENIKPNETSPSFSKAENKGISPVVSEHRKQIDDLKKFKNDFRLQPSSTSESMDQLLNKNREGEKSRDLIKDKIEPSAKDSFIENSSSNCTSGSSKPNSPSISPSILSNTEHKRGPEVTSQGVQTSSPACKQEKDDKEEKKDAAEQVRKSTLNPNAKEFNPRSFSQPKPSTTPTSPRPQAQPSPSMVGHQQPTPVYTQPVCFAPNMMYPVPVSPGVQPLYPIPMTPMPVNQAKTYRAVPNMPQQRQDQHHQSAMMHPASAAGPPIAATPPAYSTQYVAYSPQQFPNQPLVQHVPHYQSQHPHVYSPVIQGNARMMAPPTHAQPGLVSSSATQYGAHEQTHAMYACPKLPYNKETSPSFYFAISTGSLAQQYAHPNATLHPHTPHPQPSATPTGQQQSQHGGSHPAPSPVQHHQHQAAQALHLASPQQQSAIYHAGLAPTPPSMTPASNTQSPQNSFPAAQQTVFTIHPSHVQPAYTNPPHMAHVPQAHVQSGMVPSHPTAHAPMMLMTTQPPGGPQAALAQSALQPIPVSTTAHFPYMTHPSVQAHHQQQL
- EXPERIMENT_NOTES: qHTS for Inhibitors of ATXN expression.
- Assay type: functional
Out of some 400,000 compounds screened, about 2,100 (0.53%) were called active. Inconclusive results (about 14%) are left out. No rule for the calls is given here. Shown is part of a subset that was picked to be rich in actives.
Pick one: active, inactive

Lookup: Hi, sorry to bother you, what did the test record for "CCOC(=O)/C(=C\c1ccc(Cl)cc1)c1nc(O)c2c(C)c(C)sc2n1" ?
Found: active

Lookup: Fill in: this test's call for "COc1cccc(-c2cc(C(=O)N/N=C/c3cccc(OC)c3OC)c3ccccc3n2)c1" is ___
Found: inactive

Lookup: Give the logged outcome of this assay for the following compound: "COc1ccccc1Oc1ccc(N/C=C/C(=O)c2ccco2)cc1"
Found: inactive

Lookup: Look up the recorded call for "COc1ccc(/C=N/n2c(C)nc3sc(C)c(C)c3c2=O)cc1" in this test.
Found: inactive

Lookup: Just curious, what result did "COc1cccc(OC)c1C(=O)Nc1ccccc1Sc1ccccc1" get here?
Found: inactive

====

- STUDY_SYSTEM: Ataxin-2 (Homo sapiens)
- EXPERIMENT_NOTES: qHTS for Inhibitors of ATXN expression.
- Assay type: functional
In all, about 400,000 compounds went through this assay and about 2,100 (0.53%) were called active. Another 14% or so got no clear call; they are omitted. How the calls were made is not given here. The entries come from a sample that favours actives as a whole.
// allowed return values: YES (active), NO (inactive)

Lookup: What classification did O=C1NCCNC1(c1c[nH]c2ccccc12)C(F)(F)F (configuration not stated) end up with in this test?
Found: NO

Lookup: Each molecule tested received a call. Report the one for CCN1C(=O)c2cccc3c(S(=O)(=O)NC(Cc4ccccc4)C(=O)O)ccc1c23 (configuration not stated) .
Found: NO

Lookup: In this assay, the call recorded for "COc1ccc(S(=O)(=O)N(CC(=O)NCc2ccccc2)c2ccc(C)cc2)cc1OC" was what?
Found: YES

Lookup: # fetch the recorded call for "COc1ccc2sc(-c3ccc(N(C)C)cc3)c(C#CCO)c2c1" here
Found: NO

Lookup: Name the outcome recorded for "CC(=O)N1CCC(c2c[nH]c3ccccc23)CC1" in the assay.
Found: NO

Lookup: GET /call?item= "CCN(CC)C(=O)c1sc2nc(-c3cccs3)cc(-c3ccc(Cl)cc3)c2c1N" returns the recorded outcome of this test.
Found: NO

Lookup: Call for entry COc1ccc(NC(=O)c2ccc(S(=O)(=O)N3CC(C)CC(C)C3)cc2)cc1S(N)(=O)=O (configuration not stated) :
Found: NO

Lookup: Entry "COc1cc(C(=O)Nc2ccn(C)n2)ccc1OC(F)F" : call = ?
Found: NO

Lookup: Given "CCc1nc2ccc(C(=O)Nc3cccc(OC)c3)cn2c1N(CCC(C)C)CCN(C)C" , state the outcome it received in this test.
Found: YES

Lookup: Please share the test call associated with Cc1n[nH]c(C)c1S(=O)(=O)N(CC(=O)NC(C)c1ccccc1)c1ccc(C(C)C)cc1 (configuration not stated) .
Found: YES

Lookup: Per the assay record, what outcome was assigned to "C=C(C)COc1ccc(-c2n[nH]cc2-c2ccc(OC)c(OC)c2)c(O)c1" ?
Found: YES

Lookup: Could you kindly confirm the outcome this assay logged for "CSc1nsc(SCC(=O)NCc2ccc(C)cc2)n1" ?
Found: NO
